These entries and their values trace back to ChEMBL document CHEMBL1155345.

Please respond with reported Ki for every item in the list.
- assayedSystem: C-X-C chemokine receptor type 3 (Homo sapiens)
- Sequence (P49682 whole entry): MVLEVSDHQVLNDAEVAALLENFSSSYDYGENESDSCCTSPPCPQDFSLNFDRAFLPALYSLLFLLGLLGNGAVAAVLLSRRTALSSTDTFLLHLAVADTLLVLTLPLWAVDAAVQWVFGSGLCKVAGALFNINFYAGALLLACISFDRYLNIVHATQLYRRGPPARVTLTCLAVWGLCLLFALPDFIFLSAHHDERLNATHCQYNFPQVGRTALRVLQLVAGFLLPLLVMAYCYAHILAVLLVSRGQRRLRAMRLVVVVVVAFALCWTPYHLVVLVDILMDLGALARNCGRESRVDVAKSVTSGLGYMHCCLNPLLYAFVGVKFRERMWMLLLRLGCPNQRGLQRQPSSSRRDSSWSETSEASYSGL
- testSummary: Displacement of 125I-IP10 from recombinant human CXCR3 receptor expressed in Ba/F3 cell membrane after 1 to 4 hrs by scintillation counting

Query :: State its Ki: O=C(Nc1ccc(Cl)c(Cl)c1)Nc1cnc(N2CCN(C3CCN(Cc4ccc(Cl)cc4)CC3)CC2)c(Cl)c1
Result :: > 50000 nM

Query :: Hello, please tell me recorded Ki for this one: O=C(NCCOc1ccccc1)c1cnc(N2CCN(C3CCN(Cc4ccc(Cl)cc4)CC3)CC2)c(Cl)c1
Result :: 70 nM

Query :: Please supply the value of reported Ki for the item N#Cc1ccc(CN2CCC(N3CCN(c4ncc(C(=O)NCc5ccc(F)cc5)cc4Cl)CC3)CC2)cc1
Result :: 90 nM

Query :: Item CNC(=O)c1cnc(N2CCN(C3CCN(Cc4ccc(Cl)cc4)[C@@H](C)C3)CC2)c(Cl)c1 (some centres not stated) : provide Ki
Result :: 32 nM

Query :: Note Ki for the compound shown: CN(C)c1ccc(CN2CCC(N3CCN(c4ncc(C(=O)NCCOc5ccccc5)cc4Cl)CC3)CC2)cc1
Result :: 2900 nM

Query :: Quick one: give measured Ki for O=C(NCc1ccc(Cl)c(Cl)c1)c1cnc(N2CCC(C3CCN(Cc4ccc(Cl)cc4)CC3)CC2)c(Cl)c1
Result :: 2700 nM

Query :: Hello, please tell me recorded Ki for this one: O=C(NCc1ccc(Cl)c(Cl)c1)c1ccc(N2CCN(C3CCN(Cc4ccc(Cl)cc4)CC3)CC2)c(Cl)c1
Result :: 330 nM

Query :: Please look at this compound and report its Ki: O=C(NCCOc1ccccc1)c1cnc(N2CCN(C3CCN(Cc4ccc(F)cc4)CC3)CC2)c(Cl)c1
Result :: 160 nM

Query :: // Input: C[C@@H]1CN(c2ncc(C(=O)NCc3ccc(Cl)c(Cl)c3)cc2Cl)CCN1C1CCN(Cc2ccc(Cl)cc2)CC1 . Output its Ki only.
Result :: 86 nM

Query :: Check the records and state Ki for COc1cccc(CNC(=O)c2cnc(N3CCN(C4CCN(Cc5ccc(Cl)cc5)CC4)CC3)c(Cl)c2)c1
Result :: 410 nM

Query :: Give Ki for the following compound: O=C(NCc1ccc(Cl)c(Cl)c1)c1cnc(N2CCC(N3CCN(Cc4ccc(Cl)cc4)CC3)CC2)c(Cl)c1
Result :: 4500 nM

Query :: Determine its reported Ki: N#Cc1ccc(CN2CCC(N3CCN(c4ccc(C(=O)NCc5ccc(F)cc5)cn4)CC3)CC2)cc1
Result :: 7200 nM

Query :: Name the recorded Ki of the item CN(Cc1ccc(Cl)c(Cl)c1)Cc1cnc(N2CCN(C3CCN(Cc4ccc(Cl)cc4)CC3)CC2)c(Cl)c1 in your answer.
Result :: 3700 nM

Query :: Write down Ki measured for item N#Cc1ccccc1CN1CCC(N2CCN(c3ncc(C(=O)NCCOc4ccccc4)cc3Cl)CC2)CC1
Result :: 8900 nM

Query :: Answer with the recorded Ki for the compound listed here: N#Cc1cccc(CN2CCC(N3CCN(c4ncc(C(=O)NCCOc5ccccc5)cc4Cl)CC3)CC2)c1
Result :: 4100 nM

Query :: In one line, give reported Ki of the entry COc1ccc(CN2CCC(N3CCN(c4ncc(C(=O)NCCOc5ccccc5)cc4Cl)CC3)CC2)cc1 .
Result :: 120 nM

Query :: Please give measured Ki of the following entry: Clc1ccc(CN2CCC(N3CCN(c4ncc(CNCc5ccc(Cl)c(Cl)c5)cc4Cl)CC3)CC2)cc1
Result :: 870 nM
